tested on: Fer (mouse); test: phosphorylation enrichment, bacterial display (enrichment ratio); higher = better substrate or ligand; peptides without Tyr show the background;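 also: 11-residue human phosphosite peptides and single-mutation variants displayed on the E. coli surface, counted by deep sequencing, each peptide's frequency after selection divided by its frequency in the unselected input library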;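 also: frequency after pTyr selection over input frequency; kinase dosed for 20-30% of maximal phosphorylation in three min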
Assign class by phosphorylation enrichment: not lower than 0.6 means yes (1); lower than 0.6 means no (0).

Examples from the recorded data:
residues	answerLabel
FDDDDYDTDFV [BLM_Y296]	no (0)
NFCPGYNNFFN [USH2A_Y467_R464C_YF]	no (0)
LQLLGDRPVFS [CHST6_Y358_Y358D_YF]	no (0)
PRDSGYSYETI [MAP1B_Y1921_S1917R]	yes (1)
SVFNNYIQTLG [CTNND1_Y174_S171F]	no (0)
SMAKFYASGIA [ACADSB_Y373_E376G_YF]	no (0)
CPEARYNRSPI [PTAR1_Y42]	no (0)
DYYDLYGGEKL [PTPN11_Y66_F71L]	yes (1)

Say whether SGGCSYGSGGG [KRT1_Y539_G537C] shows phosphorylation enrichment of 0.6 or more.
no (0)

For this sequence, is measured phosphorylation enrichment 0.6 or higher? MFQVQYNSSVD [LRFN1_Y458_YF]
no (0)

Assess whether reported phosphorylation enrichment for EKMWSYTKSAE [GRIA3_Y705_M706T] sits at 0.6 or higher.
no (0)
